Biological target: DNA gyrase subunit A/DNA gyrase subunit B (Mycobacterium tuberculosis (strain ATCC 25618 / H37Rv), UniProt P9WG45+P9WG47)
Sequence (P9WG45 whole entry): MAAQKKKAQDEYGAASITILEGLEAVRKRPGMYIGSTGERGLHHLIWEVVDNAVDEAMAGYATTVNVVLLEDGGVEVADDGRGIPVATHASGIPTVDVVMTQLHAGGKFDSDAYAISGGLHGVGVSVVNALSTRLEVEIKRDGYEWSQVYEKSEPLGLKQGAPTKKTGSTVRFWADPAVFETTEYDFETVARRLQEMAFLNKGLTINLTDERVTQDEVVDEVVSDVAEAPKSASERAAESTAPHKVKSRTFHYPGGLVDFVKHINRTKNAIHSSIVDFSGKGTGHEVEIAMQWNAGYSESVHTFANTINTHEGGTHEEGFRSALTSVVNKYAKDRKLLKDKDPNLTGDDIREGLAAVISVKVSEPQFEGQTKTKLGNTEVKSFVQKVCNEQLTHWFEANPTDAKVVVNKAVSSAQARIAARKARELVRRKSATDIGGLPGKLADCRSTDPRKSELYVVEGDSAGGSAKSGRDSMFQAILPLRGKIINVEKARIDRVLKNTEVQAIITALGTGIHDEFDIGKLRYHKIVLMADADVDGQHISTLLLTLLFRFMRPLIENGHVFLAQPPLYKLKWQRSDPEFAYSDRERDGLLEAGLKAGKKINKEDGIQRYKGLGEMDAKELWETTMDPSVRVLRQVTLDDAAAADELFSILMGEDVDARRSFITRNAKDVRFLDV
Sequence (P9WG47 whole entry): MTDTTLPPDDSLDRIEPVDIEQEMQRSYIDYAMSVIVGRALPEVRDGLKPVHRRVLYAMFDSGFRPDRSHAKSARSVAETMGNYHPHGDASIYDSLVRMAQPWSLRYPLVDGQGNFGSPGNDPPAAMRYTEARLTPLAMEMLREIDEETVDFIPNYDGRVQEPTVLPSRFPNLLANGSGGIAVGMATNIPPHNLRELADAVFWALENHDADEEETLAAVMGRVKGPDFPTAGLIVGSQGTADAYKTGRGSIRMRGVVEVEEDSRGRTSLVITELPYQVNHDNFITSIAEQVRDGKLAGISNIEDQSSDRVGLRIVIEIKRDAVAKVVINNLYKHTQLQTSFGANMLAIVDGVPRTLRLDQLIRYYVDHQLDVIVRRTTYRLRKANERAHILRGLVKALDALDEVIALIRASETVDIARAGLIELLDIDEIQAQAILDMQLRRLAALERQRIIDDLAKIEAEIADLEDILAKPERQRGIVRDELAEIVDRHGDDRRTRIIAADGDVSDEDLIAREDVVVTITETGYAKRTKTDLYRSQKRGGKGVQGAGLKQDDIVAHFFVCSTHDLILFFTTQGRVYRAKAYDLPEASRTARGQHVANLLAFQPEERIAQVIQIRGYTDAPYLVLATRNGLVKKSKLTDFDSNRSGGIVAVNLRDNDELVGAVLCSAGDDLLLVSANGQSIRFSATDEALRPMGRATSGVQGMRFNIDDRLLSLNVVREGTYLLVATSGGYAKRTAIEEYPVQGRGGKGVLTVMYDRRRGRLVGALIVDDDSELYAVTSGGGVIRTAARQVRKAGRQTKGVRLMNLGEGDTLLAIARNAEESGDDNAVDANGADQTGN
Assay: Inhibition of DNA gyrase GyrA/GyrB in Mycobacterium tuberculosis incubated for 30 mins assessed as reduction in supercoiling of relaxed relaxed pBR322 DNA by ethidium bromide staining based agarose gel electrophoresis method

{"structure-as-smiles": "CCN1CCN(CCCNc2ccc(Nc3c(C(=O)NN)cnc4ccc(OC)cc34)cc2)CC1", "IC50 (µM)": 2.55}
{"structure-as-smiles": "CCN1CCN(CCCNc2ccc(Nc3c(C(=O)O)cnc4ccc(OC)cc34)cc2)CC1", "IC50 (µM)": 0.93}
{"structure-as-smiles": "NNC(=O)c1cnc2ccc(F)cc2c1Nc1ccc(OCCCN2CCOCC2)cc1", "IC50 (µM)": 21.4}
{"structure-as-smiles": "CCN1CCN(CCCNc2ccc(Nc3c(C(=O)NN)cnc4ccccc34)cc2)CC1", "IC50 (µM)": 9.42}
{"structure-as-smiles": "CCN1CCN(CCCOc2ccc(Nc3c(C(=O)NN)cnc4ccc(OC)cc34)cc2)CC1", "IC50 (µM)": 5.89}
{"structure-as-smiles": "CCN1CCN(CCCOc2ccc(Nc3c(C(=O)NN)cnc4ccc(C(F)(F)F)cc34)cc2)CC1", "IC50 (µM)": 9.33}

* * *

Molecular target: DNA gyrase subunit B (Mycobacterium smegmatis, UniProt P0C559)
Sequence (P0C559 whole entry): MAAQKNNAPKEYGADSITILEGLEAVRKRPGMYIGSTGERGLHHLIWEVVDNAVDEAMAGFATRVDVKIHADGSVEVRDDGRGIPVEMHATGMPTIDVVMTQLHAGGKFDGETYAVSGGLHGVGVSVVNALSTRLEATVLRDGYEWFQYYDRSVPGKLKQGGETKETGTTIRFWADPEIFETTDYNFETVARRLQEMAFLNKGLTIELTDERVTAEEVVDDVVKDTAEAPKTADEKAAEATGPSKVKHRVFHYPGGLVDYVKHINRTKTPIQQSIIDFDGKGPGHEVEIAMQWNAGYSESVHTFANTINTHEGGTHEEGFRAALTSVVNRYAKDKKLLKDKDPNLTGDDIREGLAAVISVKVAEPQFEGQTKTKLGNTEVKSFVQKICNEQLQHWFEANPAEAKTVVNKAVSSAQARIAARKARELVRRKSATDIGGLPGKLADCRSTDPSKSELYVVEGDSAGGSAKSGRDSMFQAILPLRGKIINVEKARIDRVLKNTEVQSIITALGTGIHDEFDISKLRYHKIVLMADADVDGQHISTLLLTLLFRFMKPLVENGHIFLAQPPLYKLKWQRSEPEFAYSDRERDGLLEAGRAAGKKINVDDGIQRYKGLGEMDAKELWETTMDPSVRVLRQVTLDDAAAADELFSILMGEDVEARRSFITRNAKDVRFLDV
Experiment: Inhibition of Mycobacterium smegmatis DNA gyrase B expressed in Escherichia coli BL21 (DE3) pLysS cells assessed as reduction in ATPase activity incubated for 100 mins by inorganic phosphate detection assay

{"structure-as-smiles": "CCN1CCN(CCCNc2ccc(Nc3c(C(=O)NN)cnc4ccc(OC)cc34)cc2)CC1", "unit-of-measure": "µM", "prefix-operator": "=", "IC50": 3.26}
{"structure-as-smiles": "CCN1CCN(CCCOc2ccc(Nc3c(C(=O)NN)cnc4ccc(C(F)(F)F)cc34)cc2)CC1", "unit-of-measure": "µM", "prefix-operator": "=", "IC50": 11.9}
{"structure-as-smiles": "CCOC(=O)c1cnc2ccc(OC)cc2c1Nc1ccc(NCCCN2CCN(CC)CC2)cc1", "unit-of-measure": "µM", "prefix-operator": "=", "IC50": 9.55}
{"structure-as-smiles": "CCN1CCN(CCCOc2ccc(Nc3c(C(=O)NN)cnc4ccc(OC)cc34)cc2)CC1", "unit-of-measure": "µM", "prefix-operator": "=", "IC50": 12.6}
{"structure-as-smiles": "CCN1CCN(CCCNc2ccc(Nc3c(C(=O)O)cnc4ccc(OC)cc34)cc2)CC1", "unit-of-measure": "µM", "prefix-operator": "=", "IC50": 1.32}
{"structure-as-smiles": "CCOC(=O)c1cnc2ccccc2c1Nc1ccc(NCCCN2CCN(CC)CC2)cc1", "unit-of-measure": "µM", "prefix-operator": "=", "IC50": 11.7}
{"structure-as-smiles": "CCOC(=O)c1cnc2ccc(C(F)(F)F)cc2c1Nc1ccc(OCCCN2CCN(CC)CC2)cc1", "unit-of-measure": "µM", "prefix-operator": "=", "IC50": 0.97}
{"structure-as-smiles": "CCOC(=O)c1cnc2ccccc2c1Nc1ccc(OCCCN2CCN(CC)CC2)cc1", "unit-of-measure": "µM", "prefix-operator": ">", "IC50": 50}
{"structure-as-smiles": "CCOC(=O)c1cnc2ccccc2c1Nc1ccc(NCCCN2CCOCC2)cc1", "unit-of-measure": "µM", "prefix-operator": "=", "IC50": 17.9}
{"structure-as-smiles": "CCN1CCN(CCCOc2ccc(Nc3c(C(=O)NN)cnc4ccccc34)cc2)CC1", "unit-of-measure": "µM", "prefix-operator": "=", "IC50": 28.4}

* * *

Listing: cytotoxicity at 48 h, 50 µM of selected compounds
Assay: Cytotoxicity against mouse RAW264.7 cells assessed as inhibition of cell viability at 50 uM incubated for 48 hrs at 37 degC by MTT assay relative to control
Assay type: cell-based
Conditions: read-out: INH
attribute-measured: cytotoxicity at 48 h, 50 µM (%)

{"structure-as-smiles": "CCN1CCN(CCCNc2ccc(Nc3c(C(=O)O)cnc4ccc(OC)cc34)cc2)CC1", "attribute-measured": "cytotoxicity at 48 h, 50 µM", "value": 20.1}
{"structure-as-smiles": "O=C(O)c1cnc2ccccc2c1Nc1ccc(NCCCN2CCOCC2)cc1", "attribute-measured": "cytotoxicity at 48 h, 50 µM", "value": 0.55}
{"structure-as-smiles": "CCN1CCN(CCCNc2ccc(Nc3c(C(=O)NN)cnc4ccc(OC)cc34)cc2)CC1", "attribute-measured": "cytotoxicity at 48 h, 50 µM", "value": 2.56}
{"structure-as-smiles": "CCOC(=O)c1cnc2ccc(F)cc2c1Nc1ccc(NCCCN2CCN(CC)CC2)cc1", "attribute-measured": "cytotoxicity at 48 h, 50 µM", "value": 20.2}
{"structure-as-smiles": "NNC(=O)c1cnc2ccc(C(F)(F)F)cc2c1Nc1ccc(NCCCN2CCOCC2)cc1", "attribute-measured": "cytotoxicity at 48 h, 50 µM", "value": 7.94}
{"structure-as-smiles": "NNC(=O)c1cnc2ccc(C(F)(F)F)cc2c1Nc1ccc(OCCCN2CCOCC2)cc1", "attribute-measured": "cytotoxicity at 48 h, 50 µM", "value": 0.07}
{"structure-as-smiles": "O=C(O)c1cnc2ccccc2c1Nc1ccc(OCCCN2CCOCC2)cc1", "attribute-measured": "cytotoxicity at 48 h, 50 µM", "value": 11.3}
{"structure-as-smiles": "CCN1CCN(CCCOc2ccc(Nc3c(C(=O)NN)cnc4ccc(C(F)(F)F)cc34)cc2)CC1", "attribute-measured": "cytotoxicity at 48 h, 50 µM", "value": 20.1}
{"structure-as-smiles": "CCOC(=O)c1cnc2ccccc2c1Nc1ccc(OCCCN2CCOCC2)cc1", "attribute-measured": "cytotoxicity at 48 h, 50 µM", "value": 17.7}
{"structure-as-smiles": "CCN1CCN(CCCOc2ccc(Nc3c(C(=O)NN)cnc4ccccc34)cc2)CC1", "attribute-measured": "cytotoxicity at 48 h, 50 µM", "value": 18.2}

* * *

Listing: IC50 of selected compounds
Molecular target: DNA gyrase subunit B (Mycobacterium smegmatis, UniProt P0C559)
Experiment: Inhibition of Mycobacterium smegmatis DNA gyrase B expressed in Escherichia coli BL21 (DE3) pLysS cells assessed as reduction in ATPase activity incubated for 100 mins by inorganic phosphate detection assay
attribute-measured: IC50 (µM)

{"structure-as-smiles": "O=C(O)c1cnc2ccccc2c1Nc1ccc(NCCCN2CCOCC2)cc1", "prefix-operator": "=", "value": 11.3}
{"structure-as-smiles": "CCN1CCN(CCCNc2ccc(Nc3c(C(=O)NN)cnc4ccc(F)cc34)cc2)CC1", "prefix-operator": "=", "value": 1.15}
{"structure-as-smiles": "COc1c(N2C[C@@H]3CCCN[C@@H]3C2)c(F)cc2c(=O)c(C(=O)O)cn(C3CC3)c12", "prefix-operator": ">", "value": 50}
{"structure-as-smiles": "CCOC(=O)c1cnc2ccccc2c1Nc1ccc(OCCCN2CCOCC2)cc1", "prefix-operator": "=", "value": 22.8}
{"structure-as-smiles": "O=C(O)c1cnc2ccc(C(F)(F)F)cc2c1Nc1ccc(OCCCN2CCOCC2)cc1", "prefix-operator": "=", "value": 27.8}
{"structure-as-smiles": "NNC(=O)c1cnc2ccc(F)cc2c1Nc1ccc(NCCCN2CCOCC2)cc1", "prefix-operator": "=", "value": 18.7}
{"structure-as-smiles": "CCOC(=O)c1cnc2ccc(C(F)(F)F)cc2c1Nc1ccc(OCCCN2CCOCC2)cc1", "prefix-operator": "=", "value": 38.8}
{"structure-as-smiles": "NNC(=O)c1cnc2ccccc2c1Nc1ccc(NCCCN2CCOCC2)cc1", "prefix-operator": ">", "value": 50}
{"structure-as-smiles": "O=C(O)c1cnc2ccc(F)cc2c1Nc1ccc(OCCCN2CCOCC2)cc1", "prefix-operator": "=", "value": 31.3}
{"structure-as-smiles": "CCOC(=O)c1cnc2ccc(C(F)(F)F)cc2c1Nc1ccc(NCCCN2CCOCC2)cc1", "prefix-operator": "=", "value": 6.62}
{"structure-as-smiles": "NNC(=O)c1cnc2ccc(C(F)(F)F)cc2c1Nc1ccc(OCCCN2CCOCC2)cc1", "prefix-operator": "=", "value": 38.7}
{"structure-as-smiles": "NNC(=O)c1cnc2ccc(F)cc2c1Nc1ccc(OCCCN2CCOCC2)cc1", "prefix-operator": "=", "value": 20.9}
{"structure-as-smiles": "CCOC(=O)c1cnc2ccc(F)cc2c1Nc1ccc(OCCCN2CCOCC2)cc1", "prefix-operator": "=", "value": 16.9}
{"structure-as-smiles": "CCOC(=O)c1cnc2ccc(F)cc2c1Nc1ccc(OCCCN2CCN(CC)CC2)cc1", "prefix-operator": "=", "value": 23.6}
{"structure-as-smiles": "COc1ccc2ncc(C(=O)NN)c(Nc3ccc(NCCCN4CCOCC4)cc3)c2c1", "prefix-operator": "=", "value": 44.9}
{"structure-as-smiles": "NNC(=O)c1cnc2ccccc2c1Nc1ccc(OCCCN2CCOCC2)cc1", "prefix-operator": "=", "value": 0.97}
{"structure-as-smiles": "CCOC(=O)c1cnc2ccc(OC)cc2c1Nc1ccc(NCCCN2CCOCC2)cc1", "prefix-operator": "=", "value": 22.3}
